These entries and their values trace back to ChEMBL document CHEMBL1146276.

Assay: Chemical stability in dilute base after 5 days
Assay type: physicochemical
Conditions: read-out: Stability
Quantity Measured: remaining at 120 h
Express the reported value numerically, then name its unit.

Asked: Which remaining at 120 h value belongs to "Cc1cc(-c2ccccc2)nnc1N1CCN(c2ncccn2)CC1.Cl.O" ?
Given back: 53%

====

Assay: Brain penetration, LogBB of the compound
Format: ADME
Details: read-out: logBB (converted)
Quantity Measured: Kp
Please give the numeric answer without any surrounding text.

Asked: Which Kp value belongs to Cc1cc(-c2ccccc2)nnc1N1CCN(c2ncccn2)CC1 [MINOZAC FREE BASE] ?
Given back: 2.82

====

Test: Partition coefficient, log P of the compound
Assay type: physicochemical
Conditions: octanol/water
Quantity Measured: logP
Please give the numeric answer without any surrounding text.

>>> print(df.to_string())
                              sample_smiles  quantity_measured  measured_result
0  c1ccc(-c2cc(-c3ccccc3)c(N3CCN(c4ncccn4)CC3)nn2)cc1               logP              2.7

Continue with the next compound.
Asked: Which logP value belongs to "Cc1cc(-c2ccccc2)nnc1N1CCN(c2ncccn2)CC1.Cl.O" ?
Given back: 2.3
